Tested on: UO-31
Assay: NCI tumour cell line growth inhibition, 48 h
Calls of active or inactive are those of the source. Cut-off read from the data, not from the text of the source: active = GI50 up to about 1.1 µM and inactive = higher.
Possible outcomes: active, inactive

>  <compound>
N#Cc1ccccc1Nc1ccccc1S

>  <target_under_test>
UO-31

>  <group>
inactive

$$$$
>  <compound>
C=C1CC(COc2ccc3c(C)c(C)c(=O)oc3c2C)(c2ccccc2)OC1=O (stereo not drawn)

>  <target_under_test>
UO-31

>  <group>
inactive

$$$$
>  <compound>
Cc1ccc2nc(Cl)c(/C=N/N3C(=O)/C(=C/c4cccc([N+](=O)[O-])c4)N=C3c3ccccc3)cc2c1

>  <target_under_test>
UO-31

>  <group>
inactive

$$$$
>  <compound>
CCOc1ccc(NC(=O)CC2C(=O)Nc3ccccc3S2(=O)=O)cc1 (stereo not drawn)

>  <target_under_test>
UO-31

>  <group>
inactive

$$$$
>  <compound>
C=C1CC2(CCS(=O)(=O)c3ccccc32)OC1=O (stereo not drawn)

>  <target_under_test>
UO-31

>  <group>
inactive

$$$$
>  <compound>
Cc1cccc(/C=N/NC(=S)NCCc2ccccn2)n1

>  <target_under_test>
UO-31

>  <group>
inactive

$$$$
>  <compound>
COc1ccc(C2Oc3c(cccc3-c3c(-c4ccc(O)cc4)oc4cc(O)cc(O)c4c3=O)C(=O)C2O)cc1O (stereo not drawn)

>  <target_under_test>
UO-31

>  <group>
inactive

$$$$
>  <compound>
c1ccc(C(=NNc2nc3ccccc3o2)c2ccccn2)nc1

>  <target_under_test>
UO-31

>  <group>
active

$$$$
>  <compound>
COC1=CC(=O)C2C(C1=O)[C@@H]1c3ccccc3C[C@H]21 (stereo partly drawn)

>  <target_under_test>
UO-31

>  <group>
inactive

$$$$
>  <compound>
COC1CC(OC(=O)c2ccccc2)C(OC(=O)c2ccccc2)C(C)O1 (stereo not drawn)

>  <target_under_test>
UO-31

>  <group>
inactive

$$$$
>  <compound>
CCN(CC)CCCN(c1cc(OC)cc2nccnc12)S(=O)(=O)c1ccc(C)cc1

>  <target_under_test>
UO-31

>  <group>
inactive

$$$$
>  <compound>
Cn1c2ccc([N+](=O)[O-])cc2c(=O)n1Cc1ccccc1F

>  <target_under_test>
UO-31

>  <group>
inactive

$$$$
>  <compound>
Clc1ccc(Nc2nc(Cl)c3nc[nH]c3n2)cc1Cl

>  <target_under_test>
UO-31

>  <group>
inactive

$$$$
>  <compound>
O=C1c2cccc3cccc(c23)C(=O)N1CCCN1CCN(CCCN2C(=O)c3cccc4cccc(c34)C2=O)CC1

>  <target_under_test>
UO-31

>  <group>
inactive

$$$$
>  <compound>
[O-][S+]1SC(=S)C2C=CC=CC21 (stereo not drawn)

>  <target_under_test>
UO-31

>  <group>
inactive

$$$$
>  <compound>
Clc1ccc(CCNCCNC2(c3cc4ccccc4s3)CCCCC2)cc1Cl

>  <target_under_test>
UO-31

>  <group>
inactive

$$$$
>  <compound>
COC1(OC)CCC2C1C1CCC(OC)(OC)C21 (stereo not drawn)

>  <target_under_test>
UO-31

>  <group>
inactive

$$$$
>  <compound>
Brc1cccc(/N=N/N2CCCC2)c1

>  <target_under_test>
UO-31

>  <group>
inactive

$$$$
>  <compound>
C/C(=N\[N+](C)(C)C)c1ccc(C)c(C)c1

>  <target_under_test>
UO-31

>  <group>
inactive

$$$$
>  <compound>
Cc1c(C=C(C#N)C#N)c(=O)n(C)c(=O)n1C

>  <target_under_test>
UO-31

>  <group>
inactive

$$$$
>  <compound>
O=C(Nn1c(-c2ccccc2)nc2ccccc2c1=O)c1ccc(CS)cc1

>  <target_under_test>
UO-31

>  <group>
inactive

$$$$
>  <compound>
C=C(Cl)C(Br)(CBr)CCC(Br)C(C)(C)Br (stereo not drawn)

>  <target_under_test>
UO-31

>  <group>
inactive

$$$$
>  <compound>
COCCOc1cc(C)cc(/C=C(C)/C=C/C2=C(C)CCCC2(C)C)n1

>  <target_under_test>
UO-31

>  <group>
inactive

$$$$
